System: EKVX NSCLC
measurement-notes: NCI tumour cell line growth inhibition, 48 h
observable: TGI

Worked examples follow.
COc1ccc(C(=O)C(C(=O)C(=O)Nc2nc3ccc(OC)cc3s2)c2ccc(OC)cc2)cc1 (stereo not drawn)	> 100 µM
C=CCSc1n[nH]c(-c2cccs2)n1	> 100 µM

Observed TGI on EKVX NSCLC for "Nc1ccc(-c2ccc(-c3nc4ccccc4[nH]3)cc2)cc1" , please.
> 78.2 µM

---

Measured TGI of individual entries
Tested on: OVCAR-8 ovarian
measurement-notes: NCI tumour cell line growth inhibition, 48 h

CCOC(=O)Cn1nc2ccc(Nc3nc4ccccc4nc3C(=O)OCC)cc2n1	> 100 µM

Need TGI, item CC1=CC(C)C(O)C(C)/C=C/C(O)C/C=C(/C)C(=O)CC(O)C(C)\C=C/C=C/C=C\C(=O)NC2=C(O)c3cc(C)c(O)c(c3C(=O)C2=O)C1=O (stereo not drawn)
> 100 µM

Need TGI, item CC1CC(=O)C(C(O)CC2CC(=O)N(c3ccccc3)C(=O)C2)C(C)C1 (stereo not drawn)
> 100 µM
